Values compiled from paper PMC8175350.

# EC50 per entry
System: SARS-CoV-2
PROTOCOL NOTES: microbe, parasite or virus in culture
Format: cell-based
CONDITION SET: Severe acute respiratory syndrome coronavirus 2, HeLa-ACE2; read-out: HeLa-ACE2 TOA CoV-2 EC50 GeoMean
Where a name gives a salt, the structure may show the parent alone.

COMPOUND | UNIT LABEL | VALUE OPERATOR | EC50
CCC(CC)COC(=O)[C@H](C)N[P@](=O)(OC[C@H]1O[C@@](C#N)(c2ccc3c(N)ncnn23)[C@H](O)[C@@H]1O)Oc1ccccc1 [Remdesivir] | µM | = | 0.795
O=c1nc(NO)ccn1[C@@H]1O[C@H](CO)[C@@H](O)[C@H]1O [N-hydroxycytidine] | µM | = | 4.06
CCCCN1CC[C@H](c2ccc(N(C)C)cc2)[C@@H](COc2ccc(C(F)(F)F)cc2)C1 [NNC 090026] | µM | = | 4.77
CCCCC1CCc2cc(O)cc3c(CCN4CCN(c5cc(C)ccn5)CC4)c(C)n1c23 (stereo not shown) [KC 11404] | µM | = | 2.16
OC(CNCC(O)C1CCc2cc(F)ccc2O1)C1CCc2cc(F)ccc2O1 (stereo not shown) [Nebivolol HCl] | µM | = | 1.83
Nc1nc(Nc2ccc3c(c2)CC[C@@H](N2CCCC2)CC3)nn1-c1cc2c(nn1)-c1ccccc1CCC2 [BGB324] | µM | > | 9.35
COC(=O)C1=C(C)NC(C)=C(C(=O)OCCN2CCN(C(c3ccccc3)c3ccccc3)CC2)C1c1cccc([N+](=O)[O-])c1 (stereo not shown) [Manidipine (Manyper)] | µM | = | 7.72
